Provide the reported herbicidal effect SETVI of each item.
Tested on: Setaria viridis (SETVI)
method_description: Herbicidal pre-emergence action (A), 1280 g/ha
Format: in vivo
reported_conditions: visual grading after ca. 3 weeks vs untreated controls
Please respond with the number in % and leave the unit unwritten.

For reference, reported herbicidal effect SETVI for `Cc1cc2scnc2nc1-c1sccc1C` stands at 100

For reference, reported herbicidal effect SETVI for `CSc1nc2nc(-c3ccccc3C)c(C)cc2s1` stands at 90

For reference, reported herbicidal effect SETVI for Cc1cc2scnc2nc1C12CCCCC1O2 (centres unmarked) stands at 100

For reference, reported herbicidal effect SETVI for `Cc1ccsc1-c1nc2ncsc2cc1Cl` stands at 100

For reference, reported herbicidal effect SETVI for `Fc1ccc(-c2ccc3scnc3n2)cc1` stands at 100

For reference, reported herbicidal effect SETVI for `Cc1sccc1-c1ccc2scnc2n1` stands at 100

For reference, reported herbicidal effect SETVI for `Cc1cc2scnc2nc1-c1ccccc1` stands at 100

For reference, reported herbicidal effect SETVI for `Cc1cc2sc(S)nc2nc1-c1ccccc1Cl` stands at 90

For reference, reported herbicidal effect SETVI for `CCc1cc2scnc2nc1-c1ccccc1OC` stands at 100

For reference, reported herbicidal effect SETVI for `CCc1cc2scnc2nc1-c1ccccc1C` stands at 100

For reference, reported herbicidal effect SETVI for `Cc1cccc(F)c1-c1nc2ncsc2cc1Cl` stands at 100

* * *

Tested on: Setaria viridis (SETVI)
method_description: Herbicidal pre-emergence action (A), 1280 g/ha
Type: in vivo
reported_conditions: visual grading after ca. 3 weeks vs untreated controls
attribute_measured: herbicidal effect SETVI (%)
Please respond with the number in % and leave the unit unwritten.

For reference, reported herbicidal effect SETVI for `CCc1cc2sc(SC)nc2nc1-c1ccccc1C` stands at 100

For reference, reported herbicidal effect SETVI for `Fc1cccc(-c2ccc3scnc3n2)c1` stands at 100

For reference, reported herbicidal effect SETVI for `Clc1cc2scnc2nc1-c1ccsc1Cl` stands at 100

For reference, reported herbicidal effect SETVI for `Cc1scc(-c2ccc3scnc3n2)c1C` stands at 90

For reference, reported herbicidal effect SETVI for `Cc1nc2nc(-c3ccccc3F)c(C)cc2s1` stands at 100

For reference, reported herbicidal effect SETVI for `N#Cc1nc2nc(-c3ccccc3F)c(Br)cc2s1` stands at 100

* * *

Provide the reported herbicidal effect VIOTR of each item.
System: Viola tricolor (VIOTR)
method_description: Herbicidal pre-emergence action (C), 320 g/ha
Type: in vivo
reported_conditions: ca. 3 weeks
Please respond with the number in % and leave the unit unwritten.

For reference, reported herbicidal effect VIOTR for `CC(C)c1cc2scnc2nc1-c1ccccc1F` stands at 80

For reference, reported herbicidal effect VIOTR for `Cc1cc2scnc2nc1-c1ccccc1Cl` stands at 80

For reference, reported herbicidal effect VIOTR for `Cc1cc2scnc2nc1-c1sccc1Cl` stands at 90

For reference, reported herbicidal effect VIOTR for `CCc1cc2scnc2nc1-c1ccccc1` stands at 100

For reference, reported herbicidal effect VIOTR for `Fc1ccccc1-c1nc2ncsc2cc1C1CC1` stands at 80

For reference, reported herbicidal effect VIOTR for `COc1ccccc1-c1nc2ncsc2cc1C` stands at 90

For reference, reported herbicidal effect VIOTR for `Cc1cc2scnc2nc1-c1cccc(F)c1` stands at 80

For reference, reported herbicidal effect VIOTR for `Fc1cccc(F)c1-c1nc2ncsc2cc1Cl` stands at 80

For reference, reported herbicidal effect VIOTR for `Cc1cc2scnc2nc1-c1ccccc1F` stands at 80

For reference, reported herbicidal effect VIOTR for `CCc1cc2scnc2nc1-c1ccccc1F` stands at 80

For reference, reported herbicidal effect VIOTR for `Fc1ccccc1-c1ccc2scnc2n1` stands at 100

For reference, reported herbicidal effect VIOTR for `Cc1cc2scnc2nc1-c1ccsc1C` stands at 90

* * *

Tested on: Matricaria inodora (MATIN)
method_description: Herbicidal pre-emergence action (C), 320 g/ha
Assay type: in vivo
reported_conditions: ca. 3 weeks
attribute_measured: herbicidal effect MATIN (%)
Please respond with the number in % and leave the unit unwritten.

For reference, reported herbicidal effect MATIN for Fc1cccc(-c2nc3ncsc3cc2Cl)c1F [Example I-114] stands at 80

For reference, reported herbicidal effect MATIN for Fc1ccc(-c2nc3ncsc3cc2Cl)c(F)c1 [Example I-127] stands at 80

For reference, reported herbicidal effect MATIN for Fc1ccccc1-c1nc2ncsc2cc1Br [Example I-012] stands at 90

For reference, reported herbicidal effect MATIN for Fc1cccc(F)c1-c1nc2ncsc2cc1Cl [Example I-087] stands at 90

For reference, reported herbicidal effect MATIN for Cc1sccc1-c1nc2ncsc2cc1Br [Example I-135] stands at 80

For reference, reported herbicidal effect MATIN for CCc1cc2scnc2nc1-c1ccccc1C [Example I-093] stands at 90

For reference, reported herbicidal effect MATIN for Cc1cc2scnc2nc1-c1sccc1Cl [Example I-137] stands at 90

For reference, reported herbicidal effect MATIN for Fc1ccccc1-c1ccc2scnc2n1 [Example I-036] stands at 100

For reference, reported herbicidal effect MATIN for Cc1cc2scnc2nc1-c1ccccc1 [Example I-041] stands at 90

For reference, reported herbicidal effect MATIN for COc1ccccc1-c1nc2ncsc2cc1C [Example I-124] stands at 80

For reference, reported herbicidal effect MATIN for Fc1ccccc1-c1nc2ncsc2cc1Cl [Example I-017] stands at 90

For reference, reported herbicidal effect MATIN for CC(C)c1cc2scnc2nc1-c1ccccc1F [Example I-184] stands at 80

For reference, reported herbicidal effect MATIN for Cc1cc2scnc2nc1-c1sccc1C [Example I-143] stands at 90

For reference, reported herbicidal effect MATIN for CCc1cc2scnc2nc1-c1ccccc1F [Example I-023] stands at 90

For reference, reported herbicidal effect MATIN for Cc1cc2scnc2nc1-c1ccccc1F [Example I-002] stands at 90

* * *

Test system: Digitaria sanguinalis (DIGSA)
method_description: Herbicidal post-emergence action (B), 1280 g/ha
Format: in vivo
reported_conditions: rated visually after about 3 weeks vs untreated controls
Excerpt: ABUTH: Abutilon theophrasti AGSTE: Agrostis tenuis ALOMY: Alopecurus myosuroides AMARE Amaranthus retroflexus DIGSA: Digitaria sanguinalis ECHCG: Echinochloa crus-galli KCHSC: Kochia scoparia LOLRI: Lolium rigidum MATIN: Matricaria inodora POAAN: Poa annua POLCO: Polygonum convolvulus SETVI: Setaria viridis STEME: Stellaria media VERPE: Veronica persica VIOTR: Viola tricolor […]
attribute_measured: herbicidal activity DIGSA
Answer format reminder: number followed by unit.

I looked up CCc1cc2scnc2nc1-c1ccccc1OC [Example I-111] and its herbicidal activity DIGSA for Digitaria sanguinalis (DIGSA) was 100%

I looked up CCc1cc2scnc2nc1-c1ccc(F)cc1F [Example I-030] and its herbicidal activity DIGSA for Digitaria sanguinalis (DIGSA) was 100%

I looked up Cc1cc2scnc2nc1-c1ccc(F)cc1F [Example I-122] and its herbicidal activity DIGSA for Digitaria sanguinalis (DIGSA) was 100%

I looked up Fc1cccc(-c2nc3ncsc3cc2Cl)c1 [Example I-068] and its herbicidal activity DIGSA for Digitaria sanguinalis (DIGSA) was 100%

I looked up CCc1cc2scnc2nc1C1=CCCCC1 [Example I-145] and its herbicidal activity DIGSA for Digitaria sanguinalis (DIGSA) was 100%

I looked up CCc1cc2sc(OC)nc2nc1-c1ccccc1C [Example I-094] and its herbicidal activity DIGSA for Digitaria sanguinalis (DIGSA) was 100%

I looked up COc1ccccc1-c1nc2ncsc2cc1C [Example I-124] and its herbicidal activity DIGSA for Digitaria sanguinalis (DIGSA) was 100%

I looked up CCc1cc2scnc2nc1-c1ccccc1C [Example I-093] and its herbicidal activity DIGSA for Digitaria sanguinalis (DIGSA) was 100%

I looked up CCc1cc2scnc2nc1-c1ccccc1C(F)(F)F [Example I-049] and its herbicidal activity DIGSA for Digitaria sanguinalis (DIGSA) was 90%

I looked up Cc1ccsc1-c1nc2ncsc2cc1Br [Example I-132] and its herbicidal activity DIGSA for Digitaria sanguinalis (DIGSA) was 90%

I looked up COc1ccccc1-c1nc2nc(SC)sc2cc1C [Example I-007] and its herbicidal activity DIGSA for Digitaria sanguinalis (DIGSA) was 100%

I looked up Cc1cc2sc([S+](C)[O-])nc2nc1-c1ccccc1 (stereo not drawn) [Example I-092] and its herbicidal activity DIGSA for Digitaria sanguinalis (DIGSA) was 100%

* * *

Test system: Kochia scoparia (KCHSC; Bassia scoparia)
method_description: Herbicidal post-emergence action (B), 1280 g/ha
Format: in vivo
attribute_measured: herbicidal effect KCHSC (%)
Please respond with the number in % and leave the unit unwritten.

For reference, reported herbicidal effect KCHSC for `Cc1cc2scnc2nc1-c1sc(Br)cc1C` stands at 90

For reference, reported herbicidal effect KCHSC for `Fc1cccc(-c2nc3ncsc3cc2Cl)c1F` stands at 90

For reference, reported herbicidal effect KCHSC for `Cc1cc2sc(S(C)(=O)=O)nc2nc1-c1ccccc1F` stands at 100

For reference, reported herbicidal effect KCHSC for `CCc1cc2sc(S)nc2nc1C1=CCCCC1` stands at 90

For reference, reported herbicidal effect KCHSC for `Cc1cc2scnc2nc1-c1ccccc1` stands at 100

For reference, reported herbicidal effect KCHSC for `Cc1cc2scnc2nc1-c1ccccc1Cl` stands at 90

For reference, reported herbicidal effect KCHSC for `COC(=O)c1nc2nc(-c3ccccc3F)c(Br)cc2s1` stands at 90

For reference, reported herbicidal effect KCHSC for `Cc1sccc1-c1nc2ncsc2cc1Br` stands at 90

For reference, reported herbicidal effect KCHSC for `Fc1ccc(-c2ccc3scnc3n2)cc1` stands at 90

For reference, reported herbicidal effect KCHSC for `Fc1cccc(-c2nc3ncsc3cc2Cl)c1` stands at 100

For reference, reported herbicidal effect KCHSC for `Cc1cc2sc(S)nc2nc1-c1ccccc1F` stands at 100

For reference, reported herbicidal effect KCHSC for `Fc1ccccc1-c1nc2nc(Cl)sc2cc1Br` stands at 90

For reference, reported herbicidal effect KCHSC for `CCc1cc2scnc2nc1-c1ccccc1` stands at 90

For reference, reported herbicidal effect KCHSC for `CCc1cc2sc(S(C)(=O)=O)nc2nc1-c1ccccc1F` stands at 90

For reference, reported herbicidal effect KCHSC for `C=Cc1cc2scnc2nc1-c1ccccc1F` stands at 90

For reference, reported herbicidal effect KCHSC for `CCc1cc2scnc2nc1-c1ccccc1C` stands at 100

For reference, reported herbicidal effect KCHSC for `CCc1cc2scnc2nc1-c1ccccc1C(F)(F)F` stands at 100

For reference, reported herbicidal effect KCHSC for CCc1cc2scnc2nc1C12CCCCC1O2 (stereo not shown) stands at 90

For reference, reported herbicidal effect KCHSC for Cc1cc2sc([S+](C)[O-])nc2nc1-c1ccccc1Cl (stereo not shown) stands at 90

For reference, reported herbicidal effect KCHSC for `Cc1cc2sc(S)nc2nc1-c1cccc(F)c1` stands at 90

For reference, reported herbicidal effect KCHSC for `Cc1ccccc1-c1nc2ncsc2cc1Cl` stands at 90

For reference, reported herbicidal effect KCHSC for `Fc1ccccc1-c1nc2ncsc2cc1Cl` stands at 90

For reference, reported herbicidal effect KCHSC for Cc1cc2scnc2nc1C12CCCCC1O2 (stereo not shown) stands at 100

For reference, reported herbicidal effect KCHSC for `Clc1cc2scnc2nc1-c1ccsc1Cl` stands at 90

For reference, reported herbicidal effect KCHSC for `CCCc1cc2scnc2nc1-c1ccccc1F` stands at 90

For reference, reported herbicidal effect KCHSC for `Cc1cscc1-c1nc2ncsc2cc1Br` stands at 90

For reference, reported herbicidal effect KCHSC for `c1ccc(-c2ccc3scnc3n2)cc1` stands at 100

For reference, reported herbicidal effect KCHSC for `Cc1cc2scnc2nc1-c1ccsc1C` stands at 100

For reference, reported herbicidal effect KCHSC for `Cc1cc2scnc2nc1-c1cccc(F)c1` stands at 90

For reference, reported herbicidal effect KCHSC for `Cc1cscc1-c1nc2ncsc2cc1C` stands at 90

For reference, reported herbicidal effect KCHSC for Cc1cc2sc([S+](C)[O-])nc2nc1-c1ccccc1 (stereo not shown) stands at 100

For reference, reported herbicidal effect KCHSC for `Fc1ccccc1-c1nc2ncsc2cc1C1CC1` stands at 100

For reference, reported herbicidal effect KCHSC for `Cc1ccsc1-c1nc2ncsc2cc1Cl` stands at 90

For reference, reported herbicidal effect KCHSC for `Cc1cc(C)c(-c2nc3ncsc3cc2C)s1` stands at 90

For reference, reported herbicidal effect KCHSC for Cc1cc2sc([S+](C)[O-])nc2nc1-c1ccccc1F (stereo not shown) stands at 100

For reference, reported herbicidal effect KCHSC for `CCc1cc2sc(OC)nc2nc1-c1ccccc1C` stands at 100

For reference, reported herbicidal effect KCHSC for `CC(C)c1cc2scnc2nc1-c1ccccc1F` stands at 90

For reference, reported herbicidal effect KCHSC for `Clc1ccccc1-c1nc2ncsc2cc1Cl` stands at 90

For reference, reported herbicidal effect KCHSC for `CSc1nc2nc(-c3ccccc3C)c(C)cc2s1` stands at 90

For reference, reported herbicidal effect KCHSC for `CCc1cc2scnc2nc1-c1ccccc1F` stands at 90
